assay: Pharmacokinetics in Beagle dogs (Table 5); format: in vivo; details: male, Beagle, plasma; dog, PO (10 mg/kg)
measurement.kind: half-life (h)

[[record]]
compound = "O=C(c1ccc(N2CCCC2)c([N+](=O)[O-])c1)N1CCN(c2ccnc3cc(Cl)ccc23)CC1"
output_unit = "h"
data_value = 4.8


----------
Assay: Pharmacokinetics in Beagle dogs (Table 5)
Format: in vivo
Conditions: male, Beagle, plasma; dog, IV (1 mg/kg)
Method: For pharmacokinetic evaluation, 3 male Beagle dogs were intravenously (IV) dosed (1 mg/kg body weight) and 3 male Beagle dogs were orally (PO) dosed (10 mg/kg body weight) with a test compound. Blood (approximately 1.0 mL) was collected via femoral vein into tubes containing K3EDTA anticoagulant at 0, 0.017, 0.083, 0.5, 1, 2, 4, 6, 8, and 24 hours post-dosing. Plasma samples were analyzed by LC-MS/MS. The analytical results were confirmed using quality control samples for intra-assay variation. […]
measurement.kind: Cmax

[[record]]
compound = "O=C(c1ccc(N2CCCC2)c([N+](=O)[O-])c1)N1CCN(c2ccnc3cc(Cl)ccc23)CC1"
data_value = "12.7 µM"

